Hello, the source for this data is paper PMC6222307, in case you need it.

Test system: A2780 cells
TEST: MTT antiproliferative assay, A2780
Assay type: cell-based, human
MEASUREMENT SETUP: Homo sapiens; A2780, 30 μM, 72 h, MTT; read-out: Growth Inhibition (%) ± SEM
Use 70% as the dividing line for inhibition at 30 µM, with the line itself on the rule met side and lower values as rule not met.

Use the examples below as a reference point.
COMPOUND: C=Cc1c(C)c(O)cc2c1-c1cc(-c3cc4c(c(C)c3O)CCc3cc(O)c(C)c(C=C)c3-4)c(O)c(C)c1CC2 [Compound 2, compressin B]
TARGET OF ASSAY: A2780 cells
ANSWER LABEL: rule not met

COMPOUND: C=Cc1c(C)c(O)cc2c1-c1ccc(OC)c(C)c1CC2 [Compound 1, compressin A]
TARGET OF ASSAY: A2780 cells
ANSWER LABEL: rule met

COMPOUND: C=Cc1cc(O)cc2c1-c1ccc(OC)c(C)c1CC2 [Compound 7]
TARGET OF ASSAY: A2780 cells
ANSWER LABEL: rule not met

Prompt: Is the recorded value of inhibition at 30 µM equal to or greater than 70% for this compound? C=Cc1cc(O)cc2c1-c1cc(-c3cc4c(c(C)c3O)CCc3cc(O)cc(C=C)c3-4)c(O)c(C)c1CC2 [Compound 8, effususin A]
Completion: rule met

Prompt: Is the recorded value of inhibition at 30 µM equal to or greater than 70% for this compound? C=Cc1cc(O)cc2c1-c1ccc(O)c(C)c1CC2 [Compound 3, effusol]
Completion: rule not met

Prompt: Is the recorded value of inhibition at 30 µM equal to or greater than 70% for this compound? C=Cc1cc(CO)cc2c1-c1ccc(O)c(C)c1CC2 [Compound 6]
Completion: rule not met

###

Tested on: SiHa cells
TEST: MTT antiproliferative assay, SiHa
Assay type: cell-based, human
MEASUREMENT SETUP: Homo sapiens, 30 μM, 72 h, MTT, read-out: Growth Inhibition (%) ± SEM
Listed compounds paired with reported inhibition at 30 µM
// return numeric value only (unit: %, not printed)

The following compounds have reported results that may help.
COMPOUND: C=Cc1c(C)c(O)cc2c1-c1ccc(OC)c(C)c1CC2
MEASURED ENDPOINT: inhibition at 30 µM
TEST RESULT: 38.6
//
COMPOUND: C=Cc1cc(O)cc2c1-c1ccc(OC)c(C)c1CC2
MEASURED ENDPOINT: inhibition at 30 µM
TEST RESULT: 29.5
//
COMPOUND: COC(C)c1cc(O)cc2c1-c1ccc(O)c(C)c1CC2 (stereo not shown)
MEASURED ENDPOINT: inhibition at 30 µM
TEST RESULT: 14.2
//
COMPOUND: C=Cc1cc(O)cc2c1-c1cc(-c3cc4c(c(C)c3O)CCc3cc(O)cc(C=C)c3-4)c(O)c(C)c1CC2
MEASURED ENDPOINT: inhibition at 30 µM
TEST RESULT: 14.4
//
COMPOUND: C=Cc1c(C)c(O)cc2c1-c1cc(-c3cc4c(c(C)c3O)CCc3cc(O)c(C)c(C=C)c3-4)c(O)c(C)c1CC2
MEASURED ENDPOINT: inhibition at 30 µM
TEST RESULT: 32.8

Prompt: // returns reported inhibition at 30 µM for input C=Cc1cc(CO)cc2c1-c1ccc(O)c(C)c1CC2
Completion: 10.2
